# details: in acetonitrile, 323.15 K
endpoint: solubility (mole fraction)
Returns: the value as a bare number; no unit string appended.

-- ask Which value of solubility (mole fraction) has been reported for CC(C)(C)OC(=O)N[C@@H](CCCN=C(N)N[N+](=O)[O-])C(=O)O in the records?
-- reply 0.00491

----------
# details: in ethyl acetate, 283.15 K
endpoint: solubility (mole fraction)
Returns: the value as a bare number; no unit string appended.

-- ask Which value of solubility (mole fraction) has been reported for CC(C)(C)OC(=O)N[C@@H](CCCN=C(N)N[N+](=O)[O-])C(=O)O in the records?
-- reply 0.000705

----------
# details: in DMF, 288.15 K
endpoint: solubility (mole fraction)

-- ask Which value of solubility (mole fraction) has been reported for CC(C)(C)OC(=O)N[C@@H](CCCN=C(N)N[N+](=O)[O-])C(=O)O in the records?
-- reply 0.185

----------
# details: in isobutanol, 303.15 K
endpoint: solubility (mole fraction)

-- ask Which value of solubility (mole fraction) has been reported for CC(C)(C)OC(=O)N[C@@H](CCCN=C(N)N[N+](=O)[O-])C(=O)O in the records?
-- reply 0.00618

----------
# details: in DMF, 298.15 K
endpoint: solubility (mole fraction)
Returns: the value as a bare number; no unit string appended.

-- ask Which value of solubility (mole fraction) has been reported for CC(C)(C)OC(=O)N[C@@H](CCCN=C(N)N[N+](=O)[O-])C(=O)O in the records?
-- reply 0.246

----------
# details: in methanol, 308.15 K
endpoint: solubility (mole fraction)
Returns: the value as a bare number; no unit string appended.

-- ask Which value of solubility (mole fraction) has been reported for CC(C)(C)OC(=O)N[C@@H](CCCN=C(N)N[N+](=O)[O-])C(=O)O in the records?
-- reply 0.0824

----------
# details: in methanol, 313.15 K
endpoint: solubility (mole fraction)
Returns: the value as a bare number; no unit string appended.

-- ask Which value of solubility (mole fraction) has been reported for CC(C)(C)OC(=O)N[C@@H](CCCN=C(N)N[N+](=O)[O-])C(=O)O in the records?
-- reply 0.0908

----------
# details: in methanol, 298.15 K
endpoint: solubility (mole fraction)

-- ask Which value of solubility (mole fraction) has been reported for CC(C)(C)OC(=O)N[C@@H](CCCN=C(N)N[N+](=O)[O-])C(=O)O in the records?
-- reply 0.0692

----------
# details: in acetonitrile, 298.15 K
endpoint: solubility (mole fraction)
Returns: the value as a bare number; no unit string appended.

-- ask Which value of solubility (mole fraction) has been reported for CC(C)(C)OC(=O)N[C@@H](CCCN=C(N)N[N+](=O)[O-])C(=O)O in the records?
-- reply 0.00193

----------
# details: in water, 298.15 K
endpoint: solubility (mole fraction)
Returns: the value as a bare number; no unit string appended.

-- ask Which value of solubility (mole fraction) has been reported for CC(C)(C)OC(=O)N[C@@H](CCCN=C(N)N[N+](=O)[O-])C(=O)O in the records?
-- reply 0.000404

----------
# details: in isobutanol, 283.15 K
endpoint: solubility (mole fraction)
Returns: the value as a bare number; no unit string appended.

-- ask Which value of solubility (mole fraction) has been reported for CC(C)(C)OC(=O)N[C@@H](CCCN=C(N)N[N+](=O)[O-])C(=O)O in the records?
-- reply 0.00231

----------
# details: in acetonitrile, 308.15 K
endpoint: solubility (mole fraction)
Returns: the value as a bare number; no unit string appended.

-- ask Which value of solubility (mole fraction) has been reported for CC(C)(C)OC(=O)N[C@@H](CCCN=C(N)N[N+](=O)[O-])C(=O)O in the records?
-- reply 0.00262

----------
# details: in n-propanol, 313.15 K
endpoint: solubility (mole fraction)
Returns: the value as a bare number; no unit string appended.

-- ask Which value of solubility (mole fraction) has been reported for CC(C)(C)OC(=O)N[C@@H](CCCN=C(N)N[N+](=O)[O-])C(=O)O in the records?
-- reply 0.0195

----------
# details: in n-propanol, 323.15 K
endpoint: solubility (mole fraction)
Returns: the value as a bare number; no unit string appended.

-- ask Which value of solubility (mole fraction) has been reported for CC(C)(C)OC(=O)N[C@@H](CCCN=C(N)N[N+](=O)[O-])C(=O)O in the records?
-- reply 0.0285

These entries and their values trace back to BigSolDB 2.1.
